- Target or test system: HRgpA-6H (Porphyromonas gingivalis) (UniProt P28784)
- Test description: ELISA, Fab FASEBA supernatant on coated HRgpA-6H (0.0625 ug/ml)
Entries and their OD450nm

Binder: KB001 parental mouse Fab VH variant A103M (Fab, V domains shown) VH: EVQLKQSGPGLVAPSQSLSITCTVSGFSLSIYSVHWVRQPPGKGLEWLGMIWGGGSSDYNSALKSRLSISKDNSKSQVFLKMNSLQTDDTAMYYCARNGNFYMMDYWGQGTSVTVSS VL: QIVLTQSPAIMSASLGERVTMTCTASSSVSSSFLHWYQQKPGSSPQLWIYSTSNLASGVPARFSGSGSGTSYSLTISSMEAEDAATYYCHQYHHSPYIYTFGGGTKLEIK
OD450nm: 0.811

Binder: KB001 parental mouse Fab VH variant G99C (Fab, V domains shown) VH: EVQLKQSGPGLVAPSQSLSITCTVSGFSLSIYSVHWVRQPPGKGLEWLGMIWGGGSSDYNSALKSRLSISKDNSKSQVFLKMNSLQTDDTAMYYCARNCNFYAMDYWGQGTSVTVSS VL: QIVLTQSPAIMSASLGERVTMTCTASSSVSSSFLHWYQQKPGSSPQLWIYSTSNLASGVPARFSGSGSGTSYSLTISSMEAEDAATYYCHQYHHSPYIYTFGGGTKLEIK
OD450nm: 0.776

Binder: KB001 parental mouse Fab VH variant M104L (Fab, V domains shown) VH: EVQLKQSGPGLVAPSQSLSITCTVSGFSLSIYSVHWVRQPPGKGLEWLGMIWGGGSSDYNSALKSRLSISKDNSKSQVFLKMNSLQTDDTAMYYCARNGNFYALDYWGQGTSVTVSS VL: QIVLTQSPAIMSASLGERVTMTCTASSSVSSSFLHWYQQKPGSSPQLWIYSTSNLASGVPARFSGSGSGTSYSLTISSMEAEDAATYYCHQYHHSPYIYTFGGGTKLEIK
OD450nm: 0.786

Binder: KB001 parental mouse Fab VH variant N100F (Fab, V domains shown) VH: EVQLKQSGPGLVAPSQSLSITCTVSGFSLSIYSVHWVRQPPGKGLEWLGMIWGGGSSDYNSALKSRLSISKDNSKSQVFLKMNSLQTDDTAMYYCARNGFFYAMDYWGQGTSVTVSS VL: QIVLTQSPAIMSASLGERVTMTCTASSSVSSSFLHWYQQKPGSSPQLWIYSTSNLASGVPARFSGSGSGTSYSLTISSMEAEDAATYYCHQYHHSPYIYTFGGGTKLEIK
OD450nm: 0.779

Binder: KB001 parental mouse Fab VH variant Y106Q (Fab, V domains shown) VH: EVQLKQSGPGLVAPSQSLSITCTVSGFSLSIYSVHWVRQPPGKGLEWLGMIWGGGSSDYNSALKSRLSISKDNSKSQVFLKMNSLQTDDTAMYYCARNGNFYAMDQWGQGTSVTVSS VL: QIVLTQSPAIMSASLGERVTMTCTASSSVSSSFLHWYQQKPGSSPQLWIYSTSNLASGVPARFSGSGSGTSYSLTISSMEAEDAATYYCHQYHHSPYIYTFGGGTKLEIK
OD450nm: 0.768

Binder: KB001 parental mouse Fab VH variant G99F (Fab, V domains shown) VH: EVQLKQSGPGLVAPSQSLSITCTVSGFSLSIYSVHWVRQPPGKGLEWLGMIWGGGSSDYNSALKSRLSISKDNSKSQVFLKMNSLQTDDTAMYYCARNFNFYAMDYWGQGTSVTVSS VL: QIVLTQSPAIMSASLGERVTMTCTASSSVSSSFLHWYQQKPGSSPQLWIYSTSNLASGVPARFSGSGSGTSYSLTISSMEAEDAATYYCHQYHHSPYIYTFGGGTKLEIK
OD450nm: 0.771

Where do the numbers come from? From patent US20230365662A1.
